- assayed.system: T1, Formyl-Peptide Receptor 1 (UniProt P21462 1-350, limits assumed)
- T1 sequence (looked up): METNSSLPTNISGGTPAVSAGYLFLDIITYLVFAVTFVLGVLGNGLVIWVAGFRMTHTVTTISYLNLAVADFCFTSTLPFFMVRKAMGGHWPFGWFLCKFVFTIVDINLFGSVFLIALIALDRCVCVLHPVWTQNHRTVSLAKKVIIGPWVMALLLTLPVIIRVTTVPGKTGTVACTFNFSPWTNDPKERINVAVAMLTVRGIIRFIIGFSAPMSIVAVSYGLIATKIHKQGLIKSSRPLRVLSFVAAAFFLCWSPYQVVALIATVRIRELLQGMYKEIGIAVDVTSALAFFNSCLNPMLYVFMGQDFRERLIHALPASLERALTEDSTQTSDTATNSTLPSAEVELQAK
- experimental.protocol: cell-based or functional assay
Bridges are numbered along the chain shown (N, C = ends). [ ]: non-standard residue; d: D form.
β-Arrestin IC50 overview
Field: numeric (µM). Do not append units.

# example entries with known answers
cyclo(YHKCHG[dP]WTICYEK[dPro((4S)OH)]P) (disulfide 4-11) [cyclo(-Tyr-His-Lys-Cys-His-Gly-^DPro-Trp-Thr-Ile-Cys-Tyr-Glu-Lys-^DPro((4S)OH)-Pro-)] ... 0.039
cyclo(YHWCHG[dP]WTICYQK[dP]P) (disulfide 4-11; SMILES CC[C@H](C)[C@@H]1NC(=O)[C@H]([C@@H](C)O)NC(=O)[C@H](Cc2c[nH]c3ccccc23)NC(=O)[C@H]2CCCN2C(=O)CNC(=O)[C@H](Cc2c[nH]cn2)NC(=O)[C@@H]2CSSC[C@H](NC1=O)C(=O)N[C@@H](Cc1ccc(O)cc1)C(=O)N[C@@H](CCC(N)=O)C(=O)N[C@@H](CCCCN)C(=O)N1CCC[C@@H]1C(=O)N1CCC[C@H]1C(=O)N[C@@H](Cc1ccc(O)cc1)C(=O)N[C@@H](Cc1c[nH]cn1)C(=O)N[C@@H](Cc1c[nH]c3ccccc13)C(=O)N2) [cyclo(-Tyr-His-Trp-Cys-His-Gly-^DPro-Trp-Thr-Ile-Cys-Tyr-Gln-Lys-^DPro-Pro-)] ... 0.177

Attention now turns to another entry.
Task: Assign β-Arrestin IC50 to the following record: cyclo(YHACYG[dP]WTICYQK[dP]P) (disulfide 4-11; SMILES CC[C@H](C)[C@@H]1NC(=O)[C@H]([C@@H](C)O)NC(=O)[C@H](Cc2c[nH]c3ccccc23)NC(=O)[C@H]2CCCN2C(=O)CNC(=O)[C@H](Cc2ccc(O)cc2)NC(=O)[C@@H]2CSSC[C@H](NC1=O)C(=O)N[C@@H](Cc1ccc(O)cc1)C(=O)N[C@@H](CCC(N)=O)C(=O)N[C@@H](CCCCN)C(=O)N1CCC[C@@H]1C(=O)N1CCC[C@H]1C(=O)N[C@@H](Cc1ccc(O)cc1)C(=O)N[C@@H](Cc1c[nH]cn1)C(=O)N[C@@H](C)C(=O)N2) [cyclo(-Tyr-His-Ala-Cys-Tyr-Gly-^DPro-Trp-Thr-Ile-Cys-Tyr-Gln-Lys-^DPro-Pro-)]
Output: 0.184
